The reported measurements were obtained from patent US20080026996A1.

target or test system: T1, rat VPAC2 receptor (rat, UniProt P35000 23-437)
T1 sequence (looked up): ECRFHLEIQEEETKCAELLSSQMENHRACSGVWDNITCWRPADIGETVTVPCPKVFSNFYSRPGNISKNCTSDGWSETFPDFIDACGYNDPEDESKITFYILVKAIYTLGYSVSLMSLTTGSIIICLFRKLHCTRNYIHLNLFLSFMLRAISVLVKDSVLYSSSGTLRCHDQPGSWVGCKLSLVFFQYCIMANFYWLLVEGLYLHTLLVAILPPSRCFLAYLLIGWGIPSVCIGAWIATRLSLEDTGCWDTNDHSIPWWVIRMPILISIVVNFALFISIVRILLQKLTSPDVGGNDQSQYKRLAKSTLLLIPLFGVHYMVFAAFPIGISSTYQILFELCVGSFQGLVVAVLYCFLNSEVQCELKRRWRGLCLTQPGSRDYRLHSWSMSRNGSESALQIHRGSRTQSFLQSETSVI
assay comment: cell-based or functional assay
Where no end group is shown, it is not given here. [ ]: non-standard residue; d: D form. The star is where a group is joined. Hexanoyl = CCCCCC(=O)*; Aib = CC(C)(N)C(=O)O
value kind: EC50 cAMP, DiscoveRx (nM)
Express it in nM; write the number only.

Prompt: Which EC50 cAMP, DiscoveRx is reported for this binder? Hexanoyl-HSDAVFTDNYTRLRKQVAA[Aib]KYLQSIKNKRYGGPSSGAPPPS (ends and bridges not checked) [P169]
Completion: 0.07

Prompt: Now give it for MHSDAVFTDNYTRLRKQVAAKKYLQSIKNKRYGGPSSGAPPPS (N-terminal methionine added (M-), also called VPAC2-P104) [P104] too.
Completion: 0.51

Prompt: Now consider Hexanoyl-HSDAVFTDNYTRLLAKVAAKKYLQSIKNKRYGGPSSGAPPPS [P135] and answer again.
Completion: 0.05

Prompt: Input Hexanoyl-HSDAVFTDNYTRLR[Aib]QVAAK[Aib]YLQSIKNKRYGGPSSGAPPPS (ends and bridges not checked) [P264]
Completion: 0.1

Prompt: Input Hexanoyl-HSDAVFTDNYTRLR[Aib]QKAA[Aib]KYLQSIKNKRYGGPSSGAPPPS (ends and bridges not checked) [P323]
Completion: 0.07
